Listed here: molecules with reported pIC50 for Human Inducible Nitric Oxide Synthase (Homo sapiens, UniProt P35228).
pIC50: −log10 of the molar value.

Check out these entries, answers already filled in.
Cc1ccnc(NC(N)=S)c1    > 4.30
CCN(CC)S(=O)(=O)NC(=O)Nc1ccc(C)cn1    > 4.30

Proceed to the following item.
Query: System Human Inducible Nitric Oxide Synthase (Homo sapiens, UniProt P35228). Read-out pIC50. Item CCN(CC)S(=O)(=O)N(C)C(=O)Nc1cc(C)ccn1 . Report value.
Reply: > 6.00

====

- Target system: Human Inducible Nitric Oxide Synthase (Homo sapiens, UniProt P35228)
- Assay notes: Inhibition of human inducible nitric oxide synthase (formation of L-[3H]citrulline from L-[3H]arginine)
- Format: biochemical
- Conditions: 50 μM inhibitor; 1 μM L-Arg, pH 7.5, room temperature, 30 minutes
Think of 60% as a floor: if inhibition at 50 µM stands on it or above, it is MET; beneath it, NOT MET.

Previously resolved entries follow.
Cc1ccnc(NC(=S)Nc2cccc3ccccc23)c1 [Example 10]    NOT MET
Cc1ccnc(NC(=S)Nc2cccc(F)c2)c1 [Example 11]    MET
COC(=O)CC(=O)Nc1cc(C)ccn1 [Example 22]    NOT MET
Cc1ccnc(NC(=S)NC2CC(C)CC(C)(C)C2)c1 (stereo not shown) [Example 13]    NOT MET
Cc1ccnc(NC(=S)Nc2ccccc2)c1 [Example 8]    NOT MET

Query: Hi team, for Cc1ccnc(NC(N)=S)c1 [Example 2, N-(2-(4-Methylpyridyl))-thiourea] , is the recorded inhibition at 50 µM at or above 60%?
Reply: MET

Query: Hi team, for Cc1ccnc(NC(=S)NCc2ccccc2)c1 [Example 12] , is the recorded inhibition at 50 µM at or above 60%?
Reply: MET
